Parameter: Enhancement percentage Emax for 2 μM GABA current (within 3-30 μM). Scope: all listed entries.
System: GABA-activated Cl− current (GABAA receptor) in HEK 293T cells
protocol notes: Effect of drugs on GABA-activated current in cells by cell patch clamp
Assay type: cell-based
conditions: −60 mV, corresponding concentration 20 μM
quantity kind: Enhancement percentage Emax for 2 μM GABA current (within 3-30 μM)

COC(=O)CC[C@@H]1N=C(c2ccccc2Cl)c2cc(Cl)ccc2-n2c(SCC(=O)N3CCN(C)CC3)nnc21; 257% (20 μM)
COC(=O)CC[C@@H]1N=C(c2ccccc2F)c2cc(Br)ccc2-n2c(S)nnc21; 252% (20 μM)
COC(=O)CC[C@@H]1N=C(c2ccccc2F)c2cc([N+](=O)[O-])ccc2-n2c(SC)nnc21; 202% (20 μM)
COC(=O)CC[C@@H]1N=C(c2ccccc2F)c2cc(Cl)ccc2-n2c(SCCN3CCOCC3)nnc21; 304% (20 μM)
COC(=O)CC[C@@H]1N=C(c2ccccc2Cl)c2cc(Br)ccc2-n2c(SC(C)=O)nnc21; 272% (20 μM)
COC(=O)CC[C@@H]1N=C(c2ccccc2F)c2cc([N+](=O)[O-])ccc2-n2c(SCCCN(C)C)nnc21; 252% (20 μM)
COC(=O)CC[C@@H]1N=C(c2ccccc2Cl)c2cc(Br)ccc2-n2c(SCCN)nnc21; 227% (20 μM)
CCCSc1nnc2n1-c1ccc(Cl)cc1C(c1ccccc1Cl)=N[C@H]2CCC(=O)OC; 251% (20 μM)
COC(=O)CC[C@@H]1N=C(c2ccccn2)c2cc(Br)ccc2-n2c(SCc3ccncc3)nnc21; 306% (20 μM)
COC(=O)CC[C@@H]1N=C(c2ccccc2Cl)c2cc([N+](=O)[O-])ccc2-n2c(SCCN)nnc21; 267% (20 μM)
COC(=O)CC[C@@H]1N=C(c2ccccc2F)c2cc(Cl)ccc2-n2c(S)nnc21; 216% (20 μM)
COC(=O)CC[C@@H]1N=C(c2ccccc2Cl)c2cc(Cl)ccc2-n2c(Sc3cn(C)cn3)nnc21; 295% (20 μM)

====

protocol notes: In vitro plasma half-life of drug
Assay type: in vitro ADME, SD rats
conditions: plasma (heparin sodium); SD rat plasma, 37° C.
Protocol: Preparation of plasma: after the SD rats were fasted and kept with water for 12 h, blood was collected through orbital venous plexus. The freshly collected blood was added into a centrifuge tube containing heparin sodium and centrifuged at 5000 rpm for 10 min at 4° C. The supernatant was slowly pipetted and subpackaged. Finally, the collected SD rat plasma was sealed, marked, and stored at −20° C. for later use. […]
quantity kind: half-life at 0.4 mg/mL (s)

COC(=O)CC[C@@H]1N=C(c2ccccc2)c2cc(Cl)ccc2-n2c(SC)nnc21 [Compound 102]; 16.2
COC(=O)CC[C@@H]1N=C(c2ccccc2Cl)c2cc(Br)ccc2-n2c(SCCO)nnc21 [Compound 33]; 53.4
CCCSc1nnc2n1-c1ccc(Br)cc1C(c1ccccc1Cl)=N[C@H]2CCC(=O)OC [Compound 30]; 27
COC(=O)CC[C@@H]1N=C(c2ccccc2F)c2cc(Br)ccc2-n2c(SCCN3CCOCC3)nnc21 [Compound 52]; 21.6
COC(=O)CC[C@@H]1N=C(c2ccccc2Cl)c2cc(Cl)ccc2-n2c(SCCO)nnc21 [Compound 32]; 16.2
COC(=O)CC[C@@H]1N=C(c2ccccc2Cl)c2cc(Br)ccc2-n2c(SC(C)=O)nnc21 [Compound 39]; 25.8

====

Parameter: In vitro blood-brain barrier, compound permeability at 5 min. Scope: all listed entries.
System: hCMEC/D3 cells
protocol notes: Rate of drug passing through in vitro blood-brain barrier (Transwell)
Format: in vitro ADME
conditions: hCMEC/D3 monolayer, compound 0.1 mg/mL
quantity kind: In vitro blood-brain barrier, compound permeability at 5 min

COC(=O)CC[C@H]1N=C(c2ccccc2Cl)c2cc(Cl)ccc2-n2c(SCCN3CCC(O)CC3)nnc21; 80.2%
COC(=O)CC[C@@H]1N=C(c2ccccc2Cl)c2cc(Br)ccc2-n2c(SCCN3CCOCC3)nnc21; 80.1%
COC(=O)CC[C@@H]1N=C(c2ccccc2F)c2cc(Cl)ccc2-n2c(SCCN3CCOCC3)nnc21; 78.6%
COC(=O)CC[C@@H]1N=C(c2ccccc2Cl)c2cc([N+](=O)[O-])ccc2-n2c(SC)nnc21; 81.5%

====

Test system: KM mice
protocol notes: Test for drug-induced disappearance of righting reflex in mice
Assay type: in vivo
conditions: 30 mg/kg, single rapid bolus via tail vein
quantity kind: Latency

COC(=O)CC[C@@H]1N=C(c2ccccc2Cl)c2cc(Cl)ccc2-n2c(SCCCN3CCN(CCO)CC3)nnc21 [Compound 96]; 0.49 min
COC(=O)CC[C@@H]1N=C(c2ccccc2)c2cc(Br)ccc2-n2c(SCCN3CCOCC3)nnc21 [Compound 106]; 0.33 min
COC(=O)CC[C@@H]1N=C(c2ccccc2Cl)c2cc(Br)ccc2-n2c(SCOP(=O)(O)O)nnc21 [Compound 112]; 0.78 min

====

System: KM mice
protocol notes: Test for drug-induced disappearance of righting reflex in mice
Format: in vivo
conditions: 60 mg/kg, single rapid bolus via tail vein
Parameter: Latency. Scope: all listed entries.
quantity kind: Latency (min)

COC(=O)CC[C@@H]1N=C(c2ccccc2F)c2cc(Br)ccc2-n2c(SCCCN(C)C)nnc21; 0.33
COC(=O)CC[C@@H]1N=C(c2ccccc2F)c2cc(Cl)ccc2-n2c(SCCCN(C)C)nnc21; 0.31
COC(=O)CC[C@@H]1N=C(c2ccccc2F)c2cc(Br)ccc2-n2c(SCCN3CCOCC3)nnc21; 0.94
COC(=O)CC[C@@H]1N=C(c2ccccc2Cl)c2cc(Cl)ccc2-n2c(SCCCN(C)C)nnc21; 0.73
COC(=O)CC[C@@H]1N=C(c2ccccc2F)c2cc([N+](=O)[O-])ccc2-n2c(SCCCN(C)C)nnc21; 0.37
CCSc1nnc2n1-c1ccc([N+](=O)[O-])cc1C(c1ccccc1Cl)=N[C@H]2CCC(=O)OC; 0.46
COC(=O)CC[C@@H]1N=C(c2ccccc2Cl)c2cc(Br)ccc2-n2c(SC3CCN(C)CC3)nnc21; 0.61
COC(=O)CC[C@@H]1N=C(c2ccccc2)c2cc([N+](=O)[O-])ccc2-n2c(SCCCN(C)C)nnc21; 0.21
COC(=O)CC[C@@H]1N=C(c2ccccc2Cl)c2cc(Br)ccc2-n2c(SCOP(=O)(O)O)nnc21; 0.46
COC(=O)CC[C@@H]1N=C(c2ccccc2F)c2cc([N+](=O)[O-])ccc2-n2c(SCCN3CCN(C)CC3)nnc21; 0.86
C#CCSc1nnc2n1-c1ccc(Cl)cc1C(c1ccccc1F)=N[C@H]2CCC(=O)OC; 1.25
COC(=O)CC[C@@H]1N=C(c2ccccc2F)c2cc([N+](=O)[O-])ccc2-n2c(SCN3CCOCC3)nnc21; 0.56
CCSc1nnc2n1-c1ccc(Cl)cc1C(c1ccccc1Cl)=N[C@H]2CCC(=O)OC; 0.18
COC(=O)CC[C@@H]1N=C(c2ccccc2)c2cc(Cl)ccc2-n2c(SCCN3CCOCC3)nnc21; 0.49
COC(=O)CC[C@@H]1N=C(c2ccccc2Cl)c2cc(Cl)ccc2-n2c(SCN3CCOCC3)nnc21; 2.63
COC(=O)CC[C@@H]1N=C(c2ccccc2Cl)c2cc([N+](=O)[O-])ccc2-n2c(SCCN3CCN(C)CC3)nnc21; 2.00
COC(=O)CC[C@@H]1N=C(c2ccccc2Cl)c2cc([N+](=O)[O-])ccc2-n2c(SCCN3CCOCC3)nnc21; 0.19
